- SYSTEM: T1, human PD-L1-mFc fusion protein (Sino Biological, Cat #10084-H05H) (human, UniProt Q9NZQ7 19-239)
- T1 construct: Bought protein; also called human PD-L1 mouse Fc fusion protein; not shown: mouse Fc
- T1 sequence (Q9NZQ7 19-239 limits assumed): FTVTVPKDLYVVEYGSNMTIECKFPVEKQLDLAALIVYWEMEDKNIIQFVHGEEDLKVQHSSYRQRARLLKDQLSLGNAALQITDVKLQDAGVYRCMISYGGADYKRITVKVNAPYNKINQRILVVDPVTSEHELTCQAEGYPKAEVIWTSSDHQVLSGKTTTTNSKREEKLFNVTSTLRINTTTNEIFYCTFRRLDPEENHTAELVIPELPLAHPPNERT
- EXPERIMENT: competition ELISA, coated human PD-L1-mFc, competitor human PD-1-His-hFc-Biotin
The entries below are paired with their reported pIC50.
In simple prose, pIC50 is minus the logarithm base ten of a concentration in moles per litre.

Recorded results for 2 binders are shown here.
- BINDER: "33E8 (antibody, human IgG1, V domains shown) VH: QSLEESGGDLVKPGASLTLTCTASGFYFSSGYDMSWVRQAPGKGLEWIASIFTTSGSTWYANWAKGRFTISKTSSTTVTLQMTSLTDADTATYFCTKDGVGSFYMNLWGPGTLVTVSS VL: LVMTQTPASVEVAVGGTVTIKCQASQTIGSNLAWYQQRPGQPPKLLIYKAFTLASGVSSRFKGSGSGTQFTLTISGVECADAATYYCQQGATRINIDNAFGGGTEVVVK"
  OBSERVED RESULT: 8.51
- BINDER: "32E2 (antibody, human IgG1, V domains shown) VH: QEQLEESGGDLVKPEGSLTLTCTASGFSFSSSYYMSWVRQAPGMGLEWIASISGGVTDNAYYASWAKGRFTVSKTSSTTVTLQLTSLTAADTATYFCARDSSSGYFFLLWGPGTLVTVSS VL: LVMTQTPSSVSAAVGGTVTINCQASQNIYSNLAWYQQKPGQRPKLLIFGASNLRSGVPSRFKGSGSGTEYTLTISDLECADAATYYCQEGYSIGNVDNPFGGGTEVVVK"
  OBSERVED RESULT: 8.12

Note: attention shifts to another entry.
Exercise: Any idea what its pIC50 is? The binder is 74A9 (antibody, human IgG1, V domains shown) VH: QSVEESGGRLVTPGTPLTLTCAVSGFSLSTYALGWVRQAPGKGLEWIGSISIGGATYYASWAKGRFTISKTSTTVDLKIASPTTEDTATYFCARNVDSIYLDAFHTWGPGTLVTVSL VL: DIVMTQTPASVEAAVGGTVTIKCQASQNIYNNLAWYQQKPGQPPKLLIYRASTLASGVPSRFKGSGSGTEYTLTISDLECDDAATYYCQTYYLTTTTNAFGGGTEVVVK
Solution: 8.64
